Attribution: patent US4226980A

Tested on: Staphylococcus aureus 209-p
Test: antibacterial activity (MIC)
Type: cell-based
Conditions: medium pH 7.2, Japanese Antibiotic Medicament Standard; unit assumed
Value Type: antibacterial activity (MIC) (µg/mL)
Number only, in µg/mL; omit the unit.

Some solved entries appear below for comparison.
{"columns": ["Compound", "Target Of Assay", "antibacterial activity (MIC) (µg/mL)"],
 "data": [
  ["COC1C(O)C(N)C(OC2OC(C(C)N)CCC2N)C(O)C1N(C)C(=O)CNC(N)=O (stereo not shown) [Compound 3, fortimicin C, reference compound]", "Staphylococcus aureus 209-p", 6.25],
  ["COC1C(O)C(N)C(OC2OC(C(C)N)CCC2NC(=O)CN)C(O)C1N(C)C[C@@H](O)CCN (stereo partly shown)", "Staphylococcus aureus 209-p", 1.56]
]}

--- query ---
query: Fill in the blank: the reported antibacterial activity (MIC) of COC1C(O)C(N)C(OC2OC(C(C)N)CCC2NCCO)C(O)C1N(C)C[C@@H](O)CCN (stereo partly shown) is ____.
result: 1.56
